Assay: Example 2.1 rhamnolipid precipitation, filtration, centrifugation: lanthanum
Conditions: lanthanum; molar ratio 10 to 1
Endpoint: Treatment 2: Rhamnolipid and Filtration (Rf) efficiency of removal

QUERY: Quickly give me recorded Treatment 2: Rhamnolipid and Filtration (Rf) efficiency of removal for CCCCCCCCCCCC(CC(=O)O)OC1O[C@@H](C)[C@H](O)[C@@H](O)[C@H]1O (some centres unmarked) [Rha C14]
RESULT: 1.0 (99.9%)

====

Assay: Example 2.1 rhamnolipid precipitation, filtration, centrifugation: lead
Settings: lead concentration after treatment; molar ratio 5 to 1
Hi! Could you tag entries with Treatment 1: Rhamnolipid Only Cr below 0.3 mmol/L as true (1), and those at or above as false (0)? Much appreciated.

QUERY: For CCCCCCCCCC(CC(=O)O)OC(=O)CC(CCCCCCCCC)OC1O[C@@H](C)[C@H](O)[C@@H](O)[C@H]1O (some centres unmarked) , is the recorded Treatment 1: Rhamnolipid Only Cr below the cut-off of 0.3 mmol/L?
RESULT: true (1)

QUERY: For CCCC(CC(=O)O)OC1O[C@@H](C)[C@H](O)[C@@H](O)[C@H]1O (some centres unmarked) , is the recorded Treatment 1: Rhamnolipid Only Cr below the cut-off of 0.3 mmol/L?
RESULT: false (0)

QUERY: For CCCCCCCCCCCC(CC(=O)O)OC1O[C@@H](C)[C@H](O)[C@@H](O)[C@H]1O (some centres unmarked) , is the recorded Treatment 1: Rhamnolipid Only Cr below the cut-off of 0.3 mmol/L?
RESULT: false (0)

QUERY: For CCCCCCCCCCCCCCCC(CC(=O)O)OC1O[C@@H](C)[C@H](O)[C@@H](O)[C@H]1O (some centres unmarked) , is the recorded Treatment 1: Rhamnolipid Only Cr below the cut-off of 0.3 mmol/L?
RESULT: true (1)
